// reported growth for each item listed
tested on: ACHN renal; experiment: NCI-60 one-dose screen, 48 h (100 = growth as untreated, 0 = no growth, -100 = all killed); conditions: 10 µM unless noted
About 83,000 compounds went through this panel and 20% of them were active in at least one assay; those are over-represented in the sample as a whole.
Note: unit % is implicit; provide only the numeric part.

Examples with their reported growth follow.
Cc1[nH]c2ccc(F)cc2c1CCNC(=O)C1CCN(C(=O)c2ccc(-c3ccccc3)cc2)CC1
52.6
NS(=O)(=O)c1ccc(-n2nc(-c3ccc(Cl)cc3)ccc2=O)cc1
101
C=CCn1c(SCC(=O)Nc2ccc(/C(C)=N\O)cc2)nnc1-c1cc(-c2ccc(OC)cc2)nc2ccccc12
28.9
Cc1cccc(NC(=O)CCc2ccc(N3C(N)=NC(N)=NC3(C)C)cc2)c1
101
CCOc1ccc(NC(=O)Nc2cc(C(C)C)ccc2C)cc1
20.6
CC(=O)N[C@@H](CNC(=O)c1cc(NC(=O)c2cc(NC(=O)c3cc(NC(=O)c4nccn4C)cn3C)cn2C)cn1C)CC(=O)Nc1cn(C)c(C(=O)Nc2cc(C(=O)Nc3cc(C(=O)Nc4cc(C(=O)NCCCN(C)CCCNC(=O)c5cccc(C(=O)O)c5)n(C)c4)n(C)c3)n(C)c2)n1
75.1
CC(C)(C)OC(=O)NCc1cccc(N=C=S)c1
61.5
CC(C(=O)O)N1C(N)=NNC1c1ccccc1O (centres undefined)
87.3

# evaluate next
Look up and state reported growth for Nc1ncnc2c1ncn2C1OC(COC(c2ccccc2)(c2ccccc2)c2ccccc2)C(O)C1O (centres undefined)
47.9

###

tested on: MCF7 breast; assay: NCI-60 one-dose screen, 48 h (100 = growth as untreated, 0 = no growth, -100 = all killed); conditions: 10 µM unless noted
About 83,000 compounds went through this panel and 20% of them were active in at least one assay; those are over-represented in the sample as a whole.
// reported growth for each item listed
Note: unit % is implicit; provide only the numeric part.

Examples with their reported growth follow.
N#Cc1c(N)nc(Cl)c(C#N)c1C(=O)c1ccccc1
18.9
COc1cc(CN(c2ccc(Cl)cc2)C2OC(=O)c3ccccc32)cc(OC)c1OC (stereo unspecified)
31.3
O=C(Nc1ccc(-n2ccc3c(NC(=O)c4ccccc4)ncnc32)cc1)c1ccc(Cl)c(C(F)(F)F)c1
12.5
OCc1cnccc1NC12CC3CC(CC(C3)C1)C2
101
C=C1C(=O)O[C@H]2[C@H]1CC/C(COC(=O)c1cc(OC)c(OC)c(OC)c1)=C\CC[C@@]1(C)O[C@@H]21
-16.5
CCN(CC)C(=O)C1CCN(C(=O)c2ccccc2)CC1
96.6
CC1(C)CC(=O)C2=C(C1)OC1=C(C(=O)CC(C)(C)C1)C2c1ccc(OCc2cn(-c3ccc(F)cc3F)nn2)cc1
87.2
CN(C)c1ccc(/C=N/n2c(-c3cc(F)c(Cl)cc3Cl)nn(CN3CCOCC3)c2=S)cc1
118

Look up and state reported growth for Nc1ncc(-c2ccc3ncnc(Nc4cncc(Cl)c4)c3c2)cn1
37.8

Look up and state reported growth for Nc1ncnc2c1c(-c1ccc(Oc3ccccc3)cc1)nn2C[C@@H]1SSC[C@H]1O
11.4

Look up and state reported growth for CC[C@H]1[C@@H]2C=C[C@@H]3[C@H]4C/C=C\C(=O)NCCC[C@@H]5NC(=O)/C(=C(O)/C=C/[C@@H]4C[C@@H]3[C@H]2C[C@H]1C)C5=O
41.3

Look up and state reported growth for CCN(CC)CCNc1ccc([N+](=O)[O-])c2sc3cc(Cl)ccc3c(=O)c12
24.6

###

system: MCF7 breast; experiment: NCI-60 one-dose screen, 48 h; conditions: 10 µM unless noted
About 83,000 compounds went through this panel and 20% of them were active in at least one assay; those are over-represented in the sample as a whole. Activity calls are given as the source filed them. How the source made its calls: active means growth percent below 10; inactive means the rest.
Please state which outcome applies, choosing from yes for active, no for inactive

Previously resolved entries follow.
CCCCn1c(-c2cccc(OC)c2)nc2cc(OC)c(OC)cc2c1=O
no
O=C(Cn1c2ccccc2c2ccncc21)N/N=C\c1ccc2ccccc2c1
no
C=C1C(=O)O[C@H]2[C@H]1CC/C(COC(=O)OC/C1=C/CC[C@@]3(C)O[C@H]3[C@H]3OC(=O)[C@@H](CN(C)C)[C@@H]3CC1)=C\CC[C@@]1(C)O[C@@H]21
yes
CN(C)CC/C=C1\c2ccccc2Sc2ccc(Cl)cc21
no
CC1(C)N=C(N)N=C(N)N1c1ccc(F)c(C(F)(F)F)c1
no

What outcome does the record of this test show for O=S(=O)(Nc1cccc2cc(OS(=O)(=O)c3ccccc3)ccc12)c1ccccc1 ?
no

What outcome does the record of this test show for O=[N+]([O-])c1cccc(C(c2ccccc2)c2ccccc2)c1 ?
no

What outcome does the record of this test show for COc1ccccc1N1CCN(CCCOc2ccc(OCCCN3CCN(c4ccccc4OC)CC3)c(C(=O)c3cc(OC)c(OC)c(OC)c3)c2)CC1 ?
no

###

tested on: SF-295 CNS; assay: NCI-60 one-dose screen, 48 h (100 = growth as untreated, 0 = no growth, -100 = all killed); details: 10 µM unless noted
This is part of a sample that, as a whole, favours compounds with a hit. Of some 83,000 tested, about 20% had one in any assay.
attribute-measured: growth (%)
Note: unit % is implicit; provide only the numeric part.

Examples with their reported growth follow.
COc1ccc(/C(Cl)=N/N=C(\Cl)c2cc(OC)c(OC)c(OC)c2)cc1OC(C)=O
102
S=c1n(CNc2ccc(Cl)nn2)nc(-c2cc(Cl)cc(Cl)c2Cl)n1/N=C/c1ccc(Cl)cc1
70
O=C(Nc1ccc(-n2cc(-c3ccncc3)c(-c3ccc(O)c(Cl)c3)n2)cc1)c1ccc(Cl)c(C(F)(F)F)c1
-2.61
COC(=O)c1ccc(NC(N)=NCC(C)(C)COc2ccc(C(F)(F)F)cc2)nc1
57.1
CN(C)CCS(=O)(=O)Nc1cc(-c2ccc3ncnc(Nc4ccc(F)c(Cl)c4)c3c2)cnc1Cl
10.1

Look up and state reported growth for COc1ccc(/C=C/C(=O)c2ccc(-n3cc(CN4CCN(c5cc6c(cc5F)c(=O)c(C(=O)O)cn6C5CC5)CC4)nn3)cc2)cc1OC
67.5

Look up and state reported growth for O=C(O)c1ccc2nc(-c3ccc(OCCCCCOc4ccc(-c5nc6ccc(C(=O)O)cc6[nH]5)cc4)cc3)[nH]c2c1
123

###

// reported growth for each item listed
system: NCI-H522 lung; assay: NCI-60 one-dose screen, 48 h (100 = growth as untreated, 0 = no growth, -100 = all killed); conditions: 10 µM unless noted
About 83,000 compounds went through this panel and 20% of them were active in at least one assay; those are over-represented in the sample as a whole.
Note: unit % is implicit; provide only the numeric part.

Look up and state reported growth for CN(C)c1ccc(/C=N/N=C(N)N)cc1
66.7

###

system: COLO 205 colon; experiment: NCI-60 one-dose screen, 48 h (100 = growth as untreated, 0 = no growth, -100 = all killed); conditions: 10 µM unless noted
The panel holds about 83,000 compounds, 20% with a hit somewhere; the sample as a whole holds those more often. Activity calls are given as the source filed them. The calls were made as follows: active = growth percent below 10; inactive = the rest.
attribute-measured: growth

Cc1nc(-c2ccc(Cl)cc2)ccc1NC(=O)Nc1cccc(C(F)(F)F)c1
121% (inactive)

Look up and state reported growth for COc1cc(NC(C)CCCN2C(=O)c3ccccc3C2=O)c2ncccc2c1OC (stereo not given)
101% (inactive)

Look up and state reported growth for COc1ccc(Cl)cc1NC(=O)c1cc2c([nH]1)-c1nc(N)sc1CCC2
121% (inactive)

Look up and state reported growth for CCCCCCCC(=O)SCC/C=C/[C@@H]1CC(=O)NCc2nc(cs2)C2=N[C@@](C)(CS2)C(=O)N[C@@H](C(C)C)C(=O)N1
-71.8% (active)

Look up and state reported growth for O=[N+]([O-])c1ccccc1NC1c2ccccc2Oc2ccccc21
69.3% (inactive)

###

test system: OVCAR-5 ovarian; assay: NCI-60 one-dose screen, 48 h (100 = growth as untreated, 0 = no growth, -100 = all killed); conditions: 10 µM unless noted
Compounds without any hit were thinned out: in the full panel of roughly 83,000, 20% have a hit.
// reported growth for each item listed
Note: unit % is implicit; provide only the numeric part.

Examples with their reported growth follow.
Nc1nc(Cl)cc(NCCCCNc2cc(Cl)nc(N)n2)n1
94.9
COc1ccc(Cn2cc3c(c2-c2cc(OC)c(OC)c(OC)c2)CCc2c(CO)noc2-3)cc1
56.6
Cc1nc(N)nc(SCc2ccccc2)c1Br
111
FC(F)(F)c1cn(CC2CNC2)c2ncnc(Cl)c12
112
CC(=O)Oc1ccc(C(OC(C)=O)OC(C)=O)cc1
108

Look up and state reported growth for O=S(c1ccccc1)c1ccc2nnnn2n1 (stereo unspecified)
110

Look up and state reported growth for COc1ccc(-c2ccc(NC(=O)Nc3cccc(C(F)(F)F)c3)c(C)n2)cc1
83

Look up and state reported growth for C=C1C(=O)O[C@H]2[C@H]1CC/C(COC(=O)c1ccc(Cl)nc1)=C\CC[C@@]1(C)O[C@@H]21
27.2

Look up and state reported growth for COc1ccccc1C(OC(C)=O)OC(C)=O
112

Look up and state reported growth for COc1cc(Cn2cc3c(c2)-c2onc(CO)c2CC3)cc(OC)c1OC
103

Look up and state reported growth for COc1ccc(-c2nn(-c3ccc(NC(=O)c4ccc(Cl)c(C(F)(F)F)c4)cc3)cc2-c2ccncc2)cc1Cl
46.5
